Recorded measurements of Papp at 1 h, 5 µM, one per entry
- Experiment Notes: Apparent passive permeability in MDCK cells expressing MDR1 (unknown origin) at 5 uM measured after 60 mins by LC-MS/MS analysis
- Format: ADME, cell-based, Canis lupus familiaris
- Assay Setup: dog
Quantity Measured: Papp at 1 h, 5 µM (×10⁻⁶ cm/s)

[[record]]
given_smiles = "CC(C)C[C@@H]1NC(=O)[C@H](C(C)C)NC(=O)[C@@H](CC(C)C)NC(=O)[C@H](CC(C)C)NC(=O)[C@H]2CCCN2C(=O)[C@@H](Cc2ccccc2)NC1=O"
quantity_measured = "Papp at 1 h, 5 µM"
numeric_readout = 8

[[record]]
given_smiles = "CC[C@H](C)[C@@H]1NC(=O)[C@@H](CC(C)C)NC(=O)[C@H](CC(C)C)NC(=O)[C@H]2CCCN2C(=O)[C@@H](Cc2ccccc2)NC(=O)[C@H](CC(C)C)NC1=O"
quantity_measured = "Papp at 1 h, 5 µM"
numeric_readout = 15

[[record]]
given_smiles = "CC(C)C[C@@H]1NC(=O)[C@H](C(C)C)NC(=O)[C@@H](CC(C)C)NC(=O)[C@H](Cc2ccccc2)NC(=O)[C@@H]2CCCN2C(=O)[C@@H](Cc2ccccc2)NC1=O"
quantity_measured = "Papp at 1 h, 5 µM"
numeric_readout = 39

[[record]]
given_smiles = "CC[C@H](C)[C@@H]1NC(=O)[C@@H](CC(C)C)NC(=O)[C@H](Cc2ccccc2)NC(=O)[C@H]2CCCN2C(=O)[C@@H](Cc2ccccc2)NC(=O)[C@H](CC(C)C)NC1=O"
quantity_measured = "Papp at 1 h, 5 µM"
numeric_readout = 18

[[record]]
given_smiles = "CC[C@H](C)[C@@H]1NC(=O)[C@@H](CC(C)C)NC(=O)[C@H](CC(C)C)NC(=O)[C@@H]2CCCN2C(=O)[C@@H](Cc2ccccc2)NC(=O)[C@H](CC(C)C)NC1=O"
quantity_measured = "Papp at 1 h, 5 µM"
numeric_readout = 40

[[record]]
given_smiles = "CC(C)C[C@@H]1NC(=O)[C@H](C(C)C)NC(=O)[C@@H](CC(C)C)NC(=O)[C@H](CC(C)C)NC(=O)[C@@H]2CCCN2C(=O)[C@@H](Cc2ccccc2)NC1=O"
quantity_measured = "Papp at 1 h, 5 µM"
numeric_readout = 33

[[record]]
given_smiles = "CC[C@H](C)[C@@H]1NC(=O)[C@@H](CC(C)C)NC(=O)[C@H](Cc2ccccc2)NC(=O)[C@@H]2CCCN2C(=O)[C@@H](Cc2ccccc2)NC(=O)[C@H](CC(C)C)NC1=O"
quantity_measured = "Papp at 1 h, 5 µM"
numeric_readout = 40

[[record]]
given_smiles = "CC(C)C[C@@H]1NC(=O)[C@H](C(C)C)NC(=O)[C@@H](CC(C)C)NC(=O)[C@H](Cc2ccccc2)NC(=O)[C@H]2CCCN2C(=O)[C@@H](Cc2ccccc2)NC1=O"
quantity_measured = "Papp at 1 h, 5 µM"
numeric_readout = 11


----------
- Experiment Notes: Octanol-water partition coefficient, log D of the compound at pH 7.4 by shake flask method
- Type: physicochemical
Quantity Measured: logD

[[record]]
given_smiles = "CC[C@H](C)[C@@H]1NC(=O)[C@@H](CC(C)C)NC(=O)[C@H](CC(C)C)NC(=O)[C@@H]2CCCN2C(=O)[C@@H](Cc2ccccc2)NC(=O)[C@H](CC(C)C)NC1=O"
quantity_measured = "logD"
numeric_readout = 2.63

[[record]]
given_smiles = "CC(C)C[C@@H]1NC(=O)[C@H](C(C)C)NC(=O)[C@@H](CC(C)C)NC(=O)[C@H](Cc2ccccc2)NC(=O)[C@H]2CCCN2C(=O)[C@@H](Cc2ccccc2)NC1=O"
quantity_measured = "logD"
numeric_readout = 2.41

[[record]]
given_smiles = "CC[C@H](C)[C@@H]1NC(=O)[C@@H](CC(C)C)NC(=O)[C@H](CC(C)C)NC(=O)[C@H]2CCCN2C(=O)[C@@H](Cc2ccccc2)NC(=O)[C@H](CC(C)C)NC1=O"
quantity_measured = "logD"
numeric_readout = 2.39

[[record]]
given_smiles = "CC(C)C[C@@H]1NC(=O)[C@H](C(C)C)NC(=O)[C@@H](CC(C)C)NC(=O)[C@H](CC(C)C)NC(=O)[C@@H]2CCCN2C(=O)[C@@H](Cc2ccccc2)NC1=O"
quantity_measured = "logD"
numeric_readout = 2.08

[[record]]
given_smiles = "CC(C)C[C@@H]1NC(=O)[C@H](C(C)C)NC(=O)[C@@H](CC(C)C)NC(=O)[C@H](Cc2ccccc2)NC(=O)[C@@H]2CCCN2C(=O)[C@@H](Cc2ccccc2)NC1=O"
quantity_measured = "logD"
numeric_readout = 2.33

[[record]]
given_smiles = "CC(C)C[C@@H]1NC(=O)[C@H](C(C)C)NC(=O)[C@@H](CC(C)C)NC(=O)[C@H](CC(C)C)NC(=O)[C@H]2CCCN2C(=O)[C@@H](Cc2ccccc2)NC1=O"
quantity_measured = "logD"
numeric_readout = 2.37

